Origin of the recorded values: patent US20260008815A1

# target or test system: T1, Recombinant Human FGFR2 alpha (IIIc) Fc Chimera Protein, CF (R&D systems, 712-FR-050) (human, UniProt P21802 22-377)
# T1 construct: bought; not shown: Fc part of the chimera
# T1 sequence (P21802 22-377, change not shown): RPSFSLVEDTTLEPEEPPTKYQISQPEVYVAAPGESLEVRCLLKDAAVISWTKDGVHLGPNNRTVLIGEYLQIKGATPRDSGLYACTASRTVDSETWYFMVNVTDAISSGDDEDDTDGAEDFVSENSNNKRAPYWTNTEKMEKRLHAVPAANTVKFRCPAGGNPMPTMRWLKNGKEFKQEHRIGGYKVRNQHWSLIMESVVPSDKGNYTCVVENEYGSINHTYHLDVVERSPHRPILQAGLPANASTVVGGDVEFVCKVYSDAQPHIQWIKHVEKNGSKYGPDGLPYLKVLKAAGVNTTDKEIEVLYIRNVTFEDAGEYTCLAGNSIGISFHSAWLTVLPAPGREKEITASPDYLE
# assay comment: ELISA on plate-bound FGFR2-Fc
Bridge positions count the residues as written; N and C are the ends. Ends that are not written are not given here. COCH2 = acetyl group that carries the bridge
Kindly state ELISA luminescence signal at 10 nmol/L peptide, relative to SEQ ID NO: 47 (=1) for each of the entries shown.

YCPQNFINPVQWRYFQHYK(COCH2)N (thioether 2-19 (inferred)) [cyclic peptide SEQ ID NO: 77]	≥ 0.7 ratio
HCEENYLDPEQYQYFIYFK(COCH2)Y (thioether 2-19) [cyclic peptide SEQ ID NO: 150]	≥ 0.7 ratio
HCQLEYLYTYVLK(COCH2)I (thioether 2-13) [cyclic peptide SEQ ID NO: 367]	0.1 to 0.5 ratio
SCEENYLDPEQYQYFIYFK(COCH2)Y (thioether 2-19) [cyclic peptide SEQ ID NO: 145]	≥ 0.7 ratio

Give ELISA luminescence signal at 10 nmol/L peptide, relative to SEQ ID NO: 47 (=1) for each of the items listed below.
1. YCDENYLDPEQYQYFIYFK(COCH2)Y (thioether 2-19) [cyclic peptide SEQ ID NO: 163]
2. QCYFLSQYILERYKVHK(COCH2)L (thioether 2-17) [cyclic peptide SEQ ID NO: 42]

≥ 0.7 ratio
≥ 0.7 ratio
